B1: tRNA (parent)
chain: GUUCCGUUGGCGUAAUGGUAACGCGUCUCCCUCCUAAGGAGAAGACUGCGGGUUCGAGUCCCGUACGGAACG

- Variants of: B1
- procedure-summary: yeast fitness relative to wild type (ratio to wild type); higher = fitter; tRNA-Arg(CCU), competitive growth, 37 C, YPD
This sample holds only a part of the variants without activity.
Measured yeast fitness accompanies every entry in the list below.

residues: GUUCCGUUGGCGUAAUGGUAACGCGUCUCCCUCCUCAGGAGAAUACUGCGGGUUCGAGUCCCGUACGGAACG [A36C G44U]
yeast fitness: ≤ 0.5

residues: GUUCCGUUGACGUAAUGGUAACGCGUCUCCCUCCUAAGGAGAAGACUGCGGGUUCGAGUCCCGUACGGAACG [G10A]
yeast fitness: 0.705

Using the record for GUUCCGAUGGCGUAAUGGUGACGCGUCUACCUCCUAAGGAGAAGACUGCGGGUUCGAGUCCCGUACGGAACG [U7A A20G C29A] , report its yeast fitness.
0.544

Next record, please: GUUCCGUUAGCGUAAUGGUACAGCGUCUCCCUCCUAAGGAGAAGACUGCGGGUUCGAGUCCCGUAUGGAACG [G9A A21C C22A C66U]
≤ 0.5

How about GUUCGGUUGGCGUAAUGGUACCGCGUCUCCCUCCUAAGGAGAUGACUGCGGGUUCGAGUCCCGUACGGAGCG [C5G A21C A43U A70G] ?
≤ 0.5

Another variant to look at: GUUCCGUCGGCGUAAUGGUAACGCGUCUCGCUCCUAAGGAGAAGAAGGAGGAUUCGACUCCCGGGCGGAACG [U8C C30G C46A U47G C49A G52A G58C U64G A65G]
≤ 0.5

Next variant up: GUUCCGGUGGCGUAAUGGUAACGCGUCUCCCUCCUAAGGAGAAGACUGCGGGUUCGAGUCCCGUACGGAGCG [U7G A70G]
0.993

What about GUUCCGUCGGCGUAAUGGUAACGCGUCUCCCUCCUAAGGAGAAGACUGCAGGUUCGAGUCCCGUACGGAACG [U8C G50A] ?
0.773
